The measured values listed here are drawn from the RNAGym collection of RNA variant scans (doi:10.7554/elife.80360).

B1: HDV Ribozyme (parent)
chain: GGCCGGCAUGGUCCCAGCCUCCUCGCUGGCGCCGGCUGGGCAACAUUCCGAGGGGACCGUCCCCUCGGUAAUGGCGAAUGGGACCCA

- Variants of: B1
- assay: self-cleavage, relative activity (ratio to wild type); higher = more cleavage; co-transcriptional
Quick rule for you: self-cleavage at 0.3 or higher means true (1), lower means false (0).

Examples from the recorded data:
{"columns": ["mutation", "category_label"],
 "data": [
  ["C7G U69A", "false (0)"],
  ["G1U C15U", "false (0)"],
  ["A42U A71U", "true (1)"]
]}

Query: Could you tell me if the measured self-cleavage of C66G C84U reaches 0.3 or more?
Result: true (1)

Query: I'd appreciate it if you could say whether C19U A77C has self-cleavage at least equal to 0.3.
Result: false (0)

Query: Given G10C U20G , state whether its self-cleavage is at least 0.3.
Result: false (0)

Query: Does the variant C24A A45C have recorded self-cleavage that is 0.3 or more?
Result: false (0)

Query: # check: self-cleavage of C49G G74U is greater than or equal to 0.3
Result: false (0)

Query: Given the entry G59A C66A , answer whether its self-cleavage meets or surpasses 0.3.
Result: true (1)

Query: Reported self-cleavage reaches at least 0.3 for C4A C48A ?
Result: false (0)
